Numbers sourced from PubChem BioAssay (EPA / NIEHS).

Read-out: Transforming Growth Factor (TGFA), TGFA (gene 7039)
assayText: LTEA_HepaRG_TGFA: Life Technologies and Expression Analysis (LTEA) Assay for Transforming Growth Factor (TGFA) using HepaRG (AID 2283532)
experimentalSetup: mRNA level, 48 h; actives raise or lower the signal
Calls of active or inactive are those of the source. The calls were made as follows: active = hit-call score of the fitted dose curve at least 0.9, where 1 is the maximum; inactive = score below 0.9.
Outcomes: active, inactive

>>> print(df.to_string())
                               smilesstring  discretelabel
0  CN(Cc1cnc2nc(N)nc(N)c2n1)c1ccc(C(=O)N[C@@H](CCC(=O)O)C(=O)O)cc1       inactive
1                                   CCCCC=O       inactive
2               CN(C)CCOC(c1ccccc1)c1ccccc1       inactive
3  CS(=O)(=O)c1ccc([C@@H](CC2CCCC2)C(=O)Nc2cnccn2)cc1Cl       inactive
4                           OCC(CO)(CBr)CBr       inactive
5                        CC(=O)Nc1ccc(O)cc1       inactive
6                     O=C(c1ccccc1)c1ccccc1       inactive
7                           CCCCCCCCCCCCCCC       inactive
8   N=C(N)c1ccc(OCCCCCOc2ccc(C(=N)N)cc2)cc1         active

* * *

assayText: ATG_VDRE_CIS: Attagene CIS-FACTORIAL HepG2 Assay for human Vitamin D Receptor Element (VDRE) (AID 2282968)
experimentalSetup: HepG2 VDRE cis-reporter transcription, actives raise or lower the signal
Calls of active or inactive are those of the source. The calls were made as follows: active = hit-call score of the fitted dose curve at least 0.9, where 1 is the maximum; inactive = score below 0.9.
Outcomes: active, inactive

>>> print(df.to_string())
                                    compound  discretelabel
 0  OCC(F)(F)C(F)(F)C(F)(F)C(F)(F)C(F)(F)C(F)(F)C(F)(F)C(F)(F)C(F)(F)C(F)(F)C(F)(F)F       inactive
 1                   O=C1OC(=O)C(F)(F)C1(F)F       inactive
 2  O=C(OC(=O)C(F)(F)C(F)(F)F)C(F)(F)C(F)(F)F       inactive
 3  C=CC(C)(CCC=C(C)C)OC(C)=O (stereo unspecified)       inactive
 4               C=CC(=C)CC/C=C(\C)CCC=C(C)C         active
 5                  Cc1ccc(C)c(S(=O)(=O)O)c1       inactive
 6   COCN(COC)c1nc(N(COC)COC)nc(N(COC)COC)n1       inactive
 7                  Cc1ccc(C(=O)c2ccccc2)cc1       inactive
 8       Oc1c(Cl)cc(Cl)cc1Sc1cc(Cl)cc(Cl)c1O         active
 9            FC(F)(F)C(F)(F)C(F)(F)C(F)(F)I       inactive
10     O=C(O)CN(CCCN(CC(=O)O)CC(=O)O)CC(=O)O       inactive
11               CC(=O)Nc1ccc(S(N)(=O)=O)cc1       inactive
12       Nc1cc(Cl)c(-c2cc(Cl)c(N)cc2Cl)cc1Cl         active
13                   CCCCCCOC(=O)c1ccc(O)cc1         active
14                             COc1cccc(O)c1       inactive
15               C/C=C/C(=O)C1=C(C)CCCC1(C)C         active
16                               CCc1ccccc1O         active
17                   CC(C)(C)c1ccc(CCC=O)cc1       inactive
18      FC(F)=C(F)C(F)(F)C(F)(F)C(F)(F)C(F)F       inactive
19    CC(C)(C)C1CCCCC1O (stereo unspecified)       inactive
20  FC(OC(F)(F)C(F)(F)C(F)(F)F)C(F)(F)F (stereo unspecified)       inactive
21  O=P(O)(O)CCC(F)(F)C(F)(F)C(F)(F)C(F)(F)C(F)(F)C(F)(F)C(F)(F)C(F)(F)F       inactive
22    FC(F)(F)N1C(F)(F)C(F)(F)OC(F)(F)C1(F)F       inactive
23                           c1ccc2c(c1)CCC2       inactive
24                    CCC(=O)C=Cc1ccc(OC)cc1         active
25                              CC(=O)CC(C)C       inactive
26  O=P(O)(O)CCC(F)(F)C(F)(F)C(F)(F)C(F)(F)C(F)(F)C(F)(F)F       inactive
27                                  CCC(=O)O       inactive
28                       Oc1c(Cl)ccc(Cl)c1Cl       inactive
29                      Clc1ccc2c(Cl)ccnc2c1       inactive
30        CC1CCC(CO)CC1 (stereo unspecified)       inactive
